assaySystem: Recombinant human β-Secretase (BACE-1) (Homo sapiens)
Sequence (P56817 46-457 limits assumed): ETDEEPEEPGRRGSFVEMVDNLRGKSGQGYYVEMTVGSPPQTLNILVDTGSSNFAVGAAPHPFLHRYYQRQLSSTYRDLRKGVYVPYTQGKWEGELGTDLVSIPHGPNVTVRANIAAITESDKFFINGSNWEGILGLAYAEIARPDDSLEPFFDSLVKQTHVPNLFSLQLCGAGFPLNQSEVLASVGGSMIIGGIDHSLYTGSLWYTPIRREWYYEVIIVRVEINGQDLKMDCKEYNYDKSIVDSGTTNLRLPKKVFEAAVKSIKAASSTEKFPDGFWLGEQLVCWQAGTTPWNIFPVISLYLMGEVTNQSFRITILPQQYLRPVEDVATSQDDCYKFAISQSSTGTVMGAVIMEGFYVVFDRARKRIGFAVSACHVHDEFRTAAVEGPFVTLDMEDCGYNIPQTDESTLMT
assayComment: BACE1 inhibition assay with fluorogenic substrate
measurementName: IC50
Number first, unit second.

compound: CC1=C(C(=O)O)C(c2ccccc2)NC(=O)N1 (centres unmarked) [Compound 16a]
IC50: 34 µM
--
compound: CCOC(=O)C1=C(C)NC(=O)NC1c1cc2ccccc2s1 (centres unmarked) [Compound 12a]
IC50: 1.35 µM
--
compound: COC(=O)C1=C(C)NC(=O)NC1c1ccccc1 (centres unmarked) [Compound 2a]
IC50: 0.32 µM
--
compound: CCOC(=O)C1=C(C)NC(=S)NC1c1ccccc1 (centres unmarked) [Compound 1b]
IC50: 1.5 µM
--
compound: CCOC(=O)C1=C(C)NC(=O)NC1c1csc2ccccc12 (centres unmarked) [Compound 11a]
IC50: 71.3 µM

Consider the following items and state reported IC50 for each.
1. CCOC(=O)C1=C(C)NC(=S)NC1c1cc2ccccc2s1 (centres unmarked) [Compound 12b]
2. CCOC(=O)C1=C(C)NC(=N)NC1c1cccc2ccccc12 (centres unmarked) [Compound 9c]
3. CCOC(=O)C1=C(C)NC(=O)NC1c1ccc(C(F)(F)F)cc1 (centres unmarked) [Compound 4a]
4. CCOC(=O)C1=C(C)NC(=O)NC1c1cccc2ccccc12 (centres unmarked) [Compound 9a]
5. CC1=C(C(N)=O)C(c2ccccc2)NC(=O)N1 (centres unmarked) [Compound 14a]
6. CC1=C(C(=O)N2CCCCC2)C(c2ccccc2)NC(=O)N1 (centres unmarked) [Compound 15a]

0.7 µM
1.5 µM
0.6 µM
3.1 µM
1.6 µM
1.6 µM

Hi there! I need IC50 for each item below, if you can.
1. CCCCC1NC(=O)NC(C)=C1C(=O)OCC (centres unmarked) [Compound 13a]
2. CCOC(=O)C1=C(C)NC(=N)NC1c1ccccc1 (centres unmarked) [Compound 1c]
3. CCOC(=O)C1=C(C)NC(=S)NC1c1cccc2ccccc12 (centres unmarked) [Compound 9b]

["2.3 µM", "0.5 µM", "0.3 µM"]

Hey, just so you know, these numbers are from paper PMC7571164.
